Provenance of the data: patent USRE38332E1

Assay: Solubility of the esters at 1 mg/ml in water and buffer solutions
Conditions: 10 mM phosphate buffer pH 7
measured.quantity: solubility in phosphate buffer

// worked examples, solubility in phosphate buffer included
compound	solubility in phosphate buffer
COC1(COC(=O)CCC(=O)O)CC2OC1(C)n1c3ccccc3c3c4c(c5c6ccccc6n2c5c31)C(=O)NC4 (centres unmarked) [Example 4, (I-5)-Hydrogen Succinate]	not completely soluble
COC1(COC(=O)CC(C)N(C)C)CC2OC1(C)n1c3ccccc3c3c4c(c5c6ccccc6n2c5c31)C(=O)NC4.Cl (centres unmarked) [Example 8]	not completely soluble
COC1(COC(=O)CCN)CC2OC1(C)n1c3ccccc3c3c4c(c5c6ccccc6n2c5c31)C(=O)NC4.Cl (stereo not drawn) [Example 11, (I-5)-β-Alaninate Hydrochloride]	not completely soluble
COC1(COC(=O)C(N)CCCCN)CC2OC1(C)n1c3ccccc3c3c4c(c5c6ccccc6n2c5c31)C(=O)NC4.Cl.Cl (centres unmarked) [Example 1, (I-5)-Lysinate Dihydrochloride]	completely soluble

Let us examine a further case.
Determine its reported solubility in phosphate buffer: COC1(COC(=O)CCNC(=O)C(N)CCCCN)CC2OC1(C)n1c3ccccc3c3c4c(c5c6ccccc6n2c5c31)C(=O)NC4.Cl.Cl (stereo not drawn) [Example 14, (I-5)-Lysyl-β-Alaninate Dihydrochloride]
completely soluble
